Target: Muscarinic acetylcholine receptor M4 (Homo sapiens) (UniProt P08173)
Sequence (P08173 whole entry, looked up): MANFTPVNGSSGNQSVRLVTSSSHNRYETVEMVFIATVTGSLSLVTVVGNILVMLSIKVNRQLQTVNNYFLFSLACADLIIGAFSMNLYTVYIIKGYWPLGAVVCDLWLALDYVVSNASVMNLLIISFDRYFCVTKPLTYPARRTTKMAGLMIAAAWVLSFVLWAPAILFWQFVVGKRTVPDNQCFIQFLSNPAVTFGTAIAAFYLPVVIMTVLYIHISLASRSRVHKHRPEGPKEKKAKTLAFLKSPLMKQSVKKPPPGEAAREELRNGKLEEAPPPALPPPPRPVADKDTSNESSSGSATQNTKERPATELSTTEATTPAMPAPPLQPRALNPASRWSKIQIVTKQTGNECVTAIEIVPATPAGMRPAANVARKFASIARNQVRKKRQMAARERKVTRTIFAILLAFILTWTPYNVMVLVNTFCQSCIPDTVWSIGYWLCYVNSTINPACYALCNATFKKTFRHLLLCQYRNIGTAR
Experiment: human M4 muscarinic receptor antagonists, primary screen, CHO cells, Fluo-8 calcium fluorescence (AID 624125);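 further: 0% = acetylcholine EC80 with DMSO and 100% = DMSO without agonist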
Details: CHO-hM4 cells, ACh EC80, Fluo-8 calcium fluorescence; at 3 µM; hits give high values
About 2,600 (0.72%) of roughly 360,000 compounds were called active. What follows is part of a selection rich in actives, with near analogues and random picks from the rest.
MEASURED ENDPOINT: inhibition (%)
API: value field is a number in %; no unit string.

For reference, reported inhibition for `O=[N+]([O-])c1cnc2ccc3ccccc3c2c1` stands at 9.35

Field inhibition (entry CC(C)c1c(CN(C)C(C)Cc2ccccc2)n(C)n(-c2ccccc2)c1=O (configuration not stated) ) reads 66.1

Reported inhibition of N#CC1=C(N)Oc2c(c(=O)oc3ccccc23)C1c1ccccc1OC(=O)c1cccs1 (configuration not stated) : 5.46

response.value for CCOC(=O)C(O)(c1ccc(N)c(OC)c1)C(F)(F)F (configuration not stated) (field: inhibition) = 1.32

Note to self: inhibition recorded for `CC(=O)N(C1=NCCCS1)c1ccccc1F` was -8.11

inhibition reported for this compound COC(=O)C(O)(c1ccc(NC(=O)c2ccco2)c(OC)c1)C(F)(F)F (configuration not stated) : 1.51

Input O=C(NCC(c1cccnc1)N1CCN(c2ccccc2)CC1)Oc1ccccc1 (configuration not stated) . Output inhibition: -1.68

response.value for `CCCCCCCCCCCCn1ccc(=N)cc1` (field: inhibition) = 71.3

inhibition reading for `Nc1ccc(C(=O)N/N=C2/CN3CCC2CC3)cc1` : -0.14

Entry under test: `O=C(Cc1ccccc1)N1CCN(C2CCCCCC2)CC1` . Its inhibition was 0.63

Just so you know, measured inhibition for CSCCC(c1nnnn1C(C)(C)C)N1CCC(n2c(=O)[nH]c3ccccc32)CC1 (configuration not stated) came out at 5.14

Lab note: measured inhibition of `COc1ccc(N=Cc2c(O)n(C)c(=O)[nH]c2=O)cc1` was 1.06

For CCCC(C)n1[nH]c(=O)c2c1NC(=O)CSC2c1ccc(OC)c(OC)c1 (configuration not stated) the compound record lists inhibition as -2

Record summary for `Cc1ccc(N(C)C(=O)Oc2cccc3ccc(C)nc23)cc1` : reported inhibition = 5.04

Reported inhibition of CCCC[N+]1(C)C2CC(OC(=O)C(CO)c3ccccc3)CC1C1OC12 (configuration not stated) : 90.4

In plain terms, COC(=O)N(c1ccc(OC)cc1)P1(=S)OCCC(C)O1 (configuration not stated) has a documented inhibition of 1.76

For this compound ( C[C@]12CCCCC1=CC(=O)C1C2CC[C@@]2(C)C1C[C@@H](F)[C@@H]2O (some centres not stated) ), measured inhibition is -6.29

The measurements presented in this section are drawn from PubChem BioAssay AID624125.
